Target: Vasopressin V1a receptor (Homo sapiens, UniProt P37288)
Sequence (P37288 whole entry): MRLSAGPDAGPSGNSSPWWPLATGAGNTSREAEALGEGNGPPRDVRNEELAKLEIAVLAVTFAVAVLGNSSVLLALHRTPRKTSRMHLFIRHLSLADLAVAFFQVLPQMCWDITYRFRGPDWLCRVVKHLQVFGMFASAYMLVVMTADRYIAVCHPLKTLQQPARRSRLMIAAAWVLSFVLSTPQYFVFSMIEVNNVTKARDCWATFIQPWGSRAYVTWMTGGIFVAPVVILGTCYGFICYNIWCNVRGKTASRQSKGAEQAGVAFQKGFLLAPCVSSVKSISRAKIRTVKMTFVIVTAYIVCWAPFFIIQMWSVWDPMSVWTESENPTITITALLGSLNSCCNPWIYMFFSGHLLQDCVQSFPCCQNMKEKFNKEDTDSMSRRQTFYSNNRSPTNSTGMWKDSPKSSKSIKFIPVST
Experiment: Inhibition of [3H]AVP binding to recombinant human vasopressin V1a receptor

>  <Molecule>
COc1ccc(-c2ccccc2)c(C(=O)Nc2ccc(C(=O)N3C[C@H]4COCCN4Cc4ccccc43)c(Cl)c2)c1

>  <Target>
Vasopressin V1a receptor (Homo sapiens, UniProt P37288)

>  <Ki>
Not Active

$$$$
>  <Molecule>
COc1cccc(-c2ccccc2C(=O)Nc2ccc(C(=O)N3C[C@H]4COCCN4Cc4ccccc43)c(Cl)c2)c1

>  <Target>
Vasopressin V1a receptor (Homo sapiens, UniProt P37288)

>  <Ki>
Not Active

$$$$
>  <Molecule>
O=C(Nc1ccc(C(=O)N2CC3CSCCN3Cc3ccc(F)cc32)cc1)c1ccccc1-c1ccccc1 (centres undefined)

>  <Target>
Vasopressin V1a receptor (Homo sapiens, UniProt P37288)

>  <Ki>
Not Active

$$$$
>  <Molecule>
Cc1ccc(F)cc1C(=O)Nc1ccc(C(=O)N2C[C@H]3COCCN3Cc3ccccc32)c(Cl)c1

>  <Target>
Vasopressin V1a receptor (Homo sapiens, UniProt P37288)

>  <Ki>
100 nM

$$$$
>  <Molecule>
O=C(Nc1ccc(C(=O)N2C[C@H]3COCCN3Cc3ccccc32)c(Cl)c1)c1ccccc1-c1cccc(O)c1

>  <Target>
Vasopressin V1a receptor (Homo sapiens, UniProt P37288)

>  <Ki>
Not Active

$$$$
>  <Molecule>
O=C(Nc1ccc(C(=O)N2C[C@H]3COCCN3Cc3ccccc32)c(Cl)c1)c1ccccc1-c1ccccc1

>  <Target>
Vasopressin V1a receptor (Homo sapiens, UniProt P37288)

>  <Ki>
24 nM

$$$$
>  <Molecule>
O=C(Nc1ccc(C(=O)N2CC3CSCCN3Cc3cccc(Cl)c32)cc1)c1ccccc1-c1ccccc1 (centres undefined)

>  <Target>
Vasopressin V1a receptor (Homo sapiens, UniProt P37288)

>  <Ki>
Not Active

$$$$
>  <Molecule>
O=C(Nc1ccc(C(=O)N2CC3CSCCN3Cc3ccccc32)c(Cl)c1)c1cc(F)ccc1-c1ccccc1 (centres undefined)

>  <Target>
Vasopressin V1a receptor (Homo sapiens, UniProt P37288)

>  <Ki>
Not Active

$$$$
>  <Molecule>
Cc1ccc2c(c1)N(C(=O)c1ccc(NC(=O)c3ccccc3-c3ccccc3)cc1)CC1CSCCN1C2 (centres undefined)

>  <Target>
Vasopressin V1a receptor (Homo sapiens, UniProt P37288)

>  <Ki>
18 nM

$$$$
